- Tested on: HL-60(TB) leukemia
- protocol description: NCI-60 one-dose screen, 48 h (100 = growth as untreated, 0 = no growth, -100 = all killed)
- condition context: 10 µM unless noted
About 83,000 compounds went through this panel and 20% of them were active in at least one assay; those are over-represented in the sample as a whole.
measurement type: growth (%)
Numbers only, in %.

Some compounds with known growth results, for comparison:
smiles repr	result unit	growth
O=C(Nc1ccc(Oc2cccc(F)c2)c(Cl)c1)c1cccnc1	%	12.1
CCN(CC)C(=O)C1CCN(C(=O)c2ccccc2)CC1	%	89.3
CNC(=O)Cc1nc(-c2cccc(NS(=O)(=O)c3c(F)cccc3F)c2F)c(-c2ccnc(Nc3ccccc3)n2)s1	%	57.8
O=C(CCl)N(C1CCCCC1)C1CCCCC1	%	104

The following compounds each have a reported value; give each one's growth.
1. O=C(CN1CCCCC1)Nc1nc(-c2cc3ccccc3oc2=O)cs1
2. Cn1c(=O)c2[nH]c(N/N=C/c3ccccc3Br)nc2n(C)c1=O
3. O=C1/C(=C\c2cn(C(=O)c3ccc(Cl)cc3)c3ccccc23)c2ccccc2N1c1c(Cl)cccc1Cl
4. CC1(C)CC(=O)NC1=O
5. CCCCCCCCCCCCCCCC(=O)N1CCN(C)CC1
6. Cn1cnc2c1c(=O)n(CCC(=O)Nc1ccc(F)cc1)c(=O)n2C
7. Cc1c(C(=O)OC(=NC2CCCCC2)NC2CCCCC2)sc2c1c(=O)nc1c(C#N)n[nH]n12

Response:
[93.8, 106, 103, 111, 47.3, 113, 124]

* * *

- System: HL-60(TB) leukemia
- protocol description: NCI-60 one-dose screen, 48 h
- condition context: 10 µM unless noted
The panel holds about 83,000 compounds, 20% with a hit somewhere; the sample as a whole holds those more often. Calls of active or inactive are those of the source. How the source made its calls: active means growth percent below 10; inactive means the rest.
// allowed return values: active, inactive

Worked examples follow.
compound	classification
CN1CCN(Cc2ccc3c(NNC(=O)c4ccccc4)nc4cc(F)ccc4n23)CC1	active
COc1ccccc1CNC(=O)C1c2ccccc2C(=O)N(CC(C)C)C1c1cccs1 (stereo unspecified)	inactive
COc1cccc(C2CC(c3cc(OC)c(OC)c(OC)c3)=NN2)c1 (stereo unspecified)	inactive
CN(C)CCOC(=O)C(C)(C)C	inactive
CS(=O)(=O)c1ccc(C(=O)N/N=C/c2ccccc2O)cc1	active

Query: # fetch the recorded call for Cn1ncc2c(Nc3ccc(Br)cc3)nc(Nc3ccc(Br)cc3)nc21 here
Response: inactive

Query: # fetch the recorded call for C#CCOc1cccc(Nc2ncnc3ccc(NC(=O)CCl)cc23)c1 here
Response: active

Query: # fetch the recorded call for COC(=O)CCC(=O)C(=O)OC here
Response: active

Query: # fetch the recorded call for CCN(CC)CCCC(C)Nc1nc(-c2ccc(OC)cc2)nc2cc(Cl)ccc12 (stereo unspecified) here
Response: inactive

Query: # fetch the recorded call for C#CC(C)(O)c1ccc(Cl)cc1 (stereo unspecified) here
Response: inactive

Query: # fetch the recorded call for O=C(/C(=C/c1ccc([N+](=O)[O-])cc1)SCc1ccc(Cl)cc1)c1ccc(F)cc1 here
Response: inactive

* * *

- Test system: HL-60(TB) leukemia
- protocol description: NCI-60 one-dose screen, 48 h (100 = growth as untreated, 0 = no growth, -100 = all killed)
- condition context: 10 µM unless noted
The panel holds about 83,000 compounds, 20% with a hit somewhere; the sample as a whole holds those more often.
measurement type: growth (%)
One number for each entry, in %.

Some molecules with known growth results, for comparison:
molecule	experimental system	number
CC(C)(C)c1nc2c(s1)c1nc(N)ncc1c1ccc(NS(=O)(=O)c3c(F)cccc3F)c(F)c12	HL-60(TB) leukemia	79.9
COc1cc(C(=O)NC(=S)NCc2ccncc2)cc(OC)c1OC	HL-60(TB) leukemia	89.7
O=C(C[n+]1cccc2cc(Cl)ccc21)c1ccc2c(c1)CCCC2	HL-60(TB) leukemia	-28.3
CC(C)OC1OC(OC(C)C)C(OC(C)C)OC1OC(C)C (stereo not given)	HL-60(TB) leukemia	87.2

Kindly consider the entry below.
Query: Which growth value belongs to O=[N+]([O-])c1cnc(Sc2ccncn2)c([N+](=O)[O-])c1 ?
Response: 11.3

* * *

- System: HL-60(TB) leukemia
- protocol description: NCI-60 one-dose screen, 48 h (100 = growth as untreated, 0 = no growth, -100 = all killed)
- condition context: 10 µM unless noted
About 83,000 compounds went through this panel and 20% of them were active in at least one assay; those are over-represented in the sample as a whole.
measurement type: growth (%)
One number for each entry, in %.

smiles repr	growth, %
COc1ccc(-c2nn(-c3ccccc3)cc2/C=C2/SC(=S)N(C)C2=O)cc1	95.8
COc1cc2nc(-c3ccc(C(F)(F)F)cc3)cc(OCCN3CCC(O)CC3)c2cc1OC	68.6
COc1ccc(OC)c(Nc2nc(-c3c(C)nc4sccn34)cs2)c1	67.9

The following compounds each have a reported value; give each one's growth.
1. C#C[C@]1(O)CC[C@H]2[C@@H]3CC=C4c5nc(Nc6ccc(OC)cc6OC)sc5CC[C@]4(C)[C@H]3CC[C@@]21C
2. Cc1nc(N)sc1Sc1nc2ccc(Cl)cc2c(=O)n1-c1ccc(Oc2ccccc2)cc1

Response:
1: 17.9; 2: 59.4

* * *

- System: HL-60(TB) leukemia
- protocol description: NCI-60 one-dose screen, 48 h
- condition context: 10 µM unless noted
The panel holds about 83,000 compounds, 20% with a hit somewhere; the sample as a whole holds those more often. Active and inactive are the calls of the source. How the source made its calls: active means growth percent below 10; inactive means the rest.
// allowed return values: T = active, F = inactive

Worked examples follow.
molecule	experimental system	classification
C#Cc1nc2ccccc2c(=O)[nH]1	HL-60(TB) leukemia	T
C=C1CCC2C3(C)COC(c4ccc(N(C)C)cc4)OC3CCC2(C)C1C/C=C1/C(=O)OCC1O (stereo not given)	HL-60(TB) leukemia	F
CCCCCCN(CCCCCC)c1ccc(/C=C2/SC(=O)N(c3nc(N4CCCC4)nc(N4CCCC4)n3)C2=O)c(C)c1	HL-60(TB) leukemia	F
O=C(Cc1ccccc1)c1ccc(Cl)cc1	HL-60(TB) leukemia	F
O=S(=O)(Nc1ccc(Cl)c(C(F)(F)F)c1)c1ccc(-c2cnc(C3CC3)o2)cc1	HL-60(TB) leukemia	T

Query: # fetch the recorded call for COCCCNc1nc(NC(=O)c2ccc(F)cc2C)cc(-c2cccnc2)n1 here
Response: F

Query: # fetch the recorded call for Cc1c2ccccc2c(C)c2c1ccc1ccccc12 here
Response: F

Query: # fetch the recorded call for O=S(=O)(Nc1ccc(-c2nc(-c3cccc(OCCN4CCOCC4)c3)c(-c3ccnc(Br)c3)[nH]2)cc1)c1ccccc1 here
Response: T

Query: # fetch the recorded call for CCCCN(CCCC)CCCCCCCCCCO here
Response: F

Query: # fetch the recorded call for O=C1NC(=S)NC(=O)C1=Cc1cccc(C=C2C(=O)NC(=S)NC2=O)c1 here
Response: F

* * *

- Test system: HL-60(TB) leukemia
- protocol description: NCI-60 one-dose screen, 48 h (100 = growth as untreated, 0 = no growth, -100 = all killed)
- condition context: 10 µM unless noted
Compounds without any hit were thinned out: in the full panel of roughly 83,000, 20% have a hit.
measurement type: growth (%)
Give bare numbers, in %.

compound	experimental system	growth, %
COc1ccc2cc(-c3ccc(NC(C)=O)c(=O)o3)ccc2c1	HL-60(TB) leukemia	95.1

The following compounds each have a reported value; give each one's growth.
1. O=C(O)c1[nH]c(=O)[nH]c(=O)c1[N+](=O)[O-]
2. COc1ccc2cc(/C=C3\N=C(c4cc(OC)c(OC)c(OC)c4)OC3=O)c(OC)nc2c1
3. O=C(/C=C/c1ccccc1)c1ccc(Nc2nc(NCCO)nc(Nc3ccc(Cl)cc3)n2)cc1
4. C=C1C(=O)O[C@H]2[C@H]1CC/C(COC(=O)NCCc1ccc(OC)c(OC)c1)=C\CC[C@@]1(C)O[C@@H]21
5. CC/C(=C(/c1ccc(OCCN(C)C)cc1)c1ccc(OC(=O)CCCCCCCCC(=O)c2c(C)[nH]c(/C=C3\N=C(c4ccc[nH]4)C=C3OC)c2C)cc1)c1ccccc1
6. CC(C)(C)NC(=O)C(OC(=O)C1CCc2cc(F)ccc2O1)c1ccccc1Cl (centres undefined)
7. O=C(OCc1ccc2c(Cl)cc(Cl)c(O)c2n1)N1CCN(C(=O)c2cc3cc(F)ccc3[nH]2)CC1
8. CCOc1ccc2nc3ccc(Cl)cc3nc2c1

Response:
1. 127
2. 95.3
3. 101
4. 30.7
5. 76.7
6. 103
7. -49.4
8. 63.7

* * *

Please provide measured growth for the entries that follow.
- Tested on: HL-60(TB) leukemia
- protocol description: NCI-60 one-dose screen, 48 h (100 = growth as untreated, 0 = no growth, -100 = all killed)
- condition context: 10 µM unless noted
Compounds without any hit were thinned out: in the full panel of roughly 83,000, 20% have a hit. Calls of active or inactive are those of the source. The calls were made as follows: active = growth percent below 10; inactive = the rest.

Some compounds with known growth results, for comparison:
compound	experimental system	growth
C=CCCCOC1[C@H](OCc2ccccc2)C(OCc2ccccc2)C(OC)O[C@@H]1CNC(=O)c1cccc(I)c1 (stereo partly drawn)	HL-60(TB) leukemia	55.1% (inactive)
Cc1ccc(Cl)c(NS(=O)(=O)c2ccc(-c3cnc(C4CC4)o3)cc2)c1	HL-60(TB) leukemia	-22% (active)
O=C(c1nn(-c2ccc(Cl)cc2)cc1O)n1nc(C(F)(F)F)cc1-c1ccccc1	HL-60(TB) leukemia	-14.8% (active)
Cc1ccc(-c2nc3ccccn3c2/C=C2/C(=O)Nc3cc(Cl)ccc32)cc1	HL-60(TB) leukemia	50.3% (inactive)
CCOC(=O)c1ccc2[nH]c(-c3ccccc3)cc(=O)c2c1	HL-60(TB) leukemia	95.3% (inactive)

The following compounds each have a reported value; give each one's growth.
1. O=C1CNC(c2ccccc2)C(c2ccccc2)N1 (stereo not drawn)
2. CC(C)(C)CC(C)(C)c1ccc(OCCOCCSC(=N)N)cc1
3. CCC(=C(c1ccc(OCCN2CCCCC2)cc1)c1ccc(OCCN2CCCCC2)cc1)c1ccc(Cl)cc1
4. COc1ccc(Cn2cc3c(c2-c2ccccc2)CCc2cncnc2-3)cc1
5. CC(=O)[C@H]1CCC/C=C/[C@@H]2C[C@H](O)C[C@H]2[C@H](O)/C=C/C(=O)O1
6. CCCCCCCCCCCCCCCCCCOc1ccccc1CC(=O)OCCC[N+](C)(C)C
7. COc1ccc(-c2noc(N)c2-c2cc(OC)c3c(c2)OCO3)cc1
8. Cc1cc2c(c(=O)o1)C(c1ccc(OC(=O)N3CCOCC3)cc1)C(C#N)=C(N)O2 (stereo not drawn)

Response:
1. 106% (inactive)
2. -51.7% (active)
3. -62.4% (active)
4. 15.2% (inactive)
5. -54.4% (active)
6. 9.1% (active)
7. -29.4% (active)
8. 104% (inactive)
